Origin of the recorded values: patent US20240287154A1

Target: human MC3R (human, UniProt P41968 1-323)
Sequence (P41968 whole entry): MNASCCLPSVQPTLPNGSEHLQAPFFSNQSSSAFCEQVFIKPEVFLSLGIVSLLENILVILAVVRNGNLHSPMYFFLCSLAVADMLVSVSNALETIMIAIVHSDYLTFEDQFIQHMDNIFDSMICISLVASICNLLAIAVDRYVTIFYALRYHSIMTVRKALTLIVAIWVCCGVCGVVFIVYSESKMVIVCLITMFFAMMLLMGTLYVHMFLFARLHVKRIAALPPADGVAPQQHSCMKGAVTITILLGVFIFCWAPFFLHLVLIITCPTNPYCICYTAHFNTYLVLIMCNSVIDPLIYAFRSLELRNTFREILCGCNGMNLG
Protocol Notes: cell-based or functional assay
Non-standard residues stand in square brackets, D forms with d. Phe(4-I) = N[C@@H](Cc1ccc(I)cc1)C(=O)O; Nle = CCCC[C@H](N)C(=O)O
Each record here notes measured MC3R selectivity (relative to MC4R).
Readout Label: MC3R selectivity (relative to MC4R)

Binder	Readout Label	Numeric Readout
Ac-[Nle][dA]HFR[dW][Nle]RFG-OH (SMILES CCCC[C@H](NC(C)=O)C(=O)N[C@H](C)C(=O)N[C@@H](Cc1c[nH]cn1)C(=O)N[C@@H](Cc1ccccc1)C(=O)N[C@@H](CCCNC(=N)N)C(=O)N[C@H](Cc1c[nH]c2ccccc12)C(=O)N[C@@H](CCCC)C(=O)N[C@@H](CCCNC(=N)N)C(=O)N[C@@H](Cc1ccccc1)C(=O)NCC(=O)O) [CTX-1532]	MC3R selectivity (relative to MC4R)	184
Ac-[Nle][dA]H[Phe(4-I)]R[dF]DRFG-OH (SMILES CCCC[C@H](NC(C)=O)C(=O)N[C@H](C)C(=O)N[C@@H](Cc1c[nH]cn1)C(=O)N[C@@H](Cc1ccc(I)cc1)C(=O)N[C@@H](CCCNC(=N)N)C(=O)N[C@H](Cc1ccccc1)C(=O)N[C@@H](CC(=O)O)C(=O)N[C@@H](CCCNC(=N)N)C(=O)N[C@@H](Cc1ccccc1)C(=O)NCC(=O)O) [CTX-1503]	MC3R selectivity (relative to MC4R)	214
H-VMGHFR[dW]DRFG-OH [CTX-1546]	MC3R selectivity (relative to MC4R)	51
